Origin of values: patent US8772283B2

We begin with a simple list: items and their reported pIC50.
Molecular target: UniProt:P31749
Sequence (P31749 whole entry): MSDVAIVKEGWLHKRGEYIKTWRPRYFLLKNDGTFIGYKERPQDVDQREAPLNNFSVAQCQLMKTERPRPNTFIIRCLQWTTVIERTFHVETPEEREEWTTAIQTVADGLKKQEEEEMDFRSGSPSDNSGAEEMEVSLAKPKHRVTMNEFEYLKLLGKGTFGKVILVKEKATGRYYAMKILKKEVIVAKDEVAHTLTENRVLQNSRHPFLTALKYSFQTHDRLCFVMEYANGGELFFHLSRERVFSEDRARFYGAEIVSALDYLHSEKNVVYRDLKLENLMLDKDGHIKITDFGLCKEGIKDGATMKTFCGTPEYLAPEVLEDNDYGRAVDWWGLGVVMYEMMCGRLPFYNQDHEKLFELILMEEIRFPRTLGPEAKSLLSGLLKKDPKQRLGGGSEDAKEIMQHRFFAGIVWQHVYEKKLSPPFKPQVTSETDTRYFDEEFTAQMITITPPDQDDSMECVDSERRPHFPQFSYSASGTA
// pIC50 here means minus log10 of the molar concentration (mol/L)

COMPOUND	QUANTITATIVE RESULT
N[C@]1(c2ccc(-c3nc4n(c3-c3ccccc3)COc3ccccc3-4)cc2)C[C@](O)(C2CC2)C1 [Example 11]	8.41

**Query** Request: pIC50, test system UniProt:P31749, entry CN(C)C(=O)c1ccc2c(c1)OCn1c-2nc(-c2ccc(C3(N)CC(C)(O)C3)cc2)c1-c1ccccc1 (stereo not drawn) [Example 57]
**Result** 7.82

**Query** Request: pIC50, test system UniProt:P31749, entry COc1ccc2c(n1)-c1nc(-c3ccc(C4(N)CC(C)(O)C4)cc3)c(-c3ccccc3)n1CO2 (stereo not drawn) [Example 51]
**Result** 8.26

**Query** Request: pIC50, test system UniProt:P31749, entry CCOc1cccc2c1-c1nc(-c3ccc(C4(N)CC(C)(O)C4)cc3)c(-c3ccccc3)n1CO2 (stereo not drawn) [Example 24]
**Result** 7.52

**Query** Request: pIC50, test system UniProt:P31749, entry C[C@]1(O)C[C@@](N)(c2ccc(-c3nc4n(c3-c3ccccc3)COc3ccccc3-4)cc2)C1 [Example 12]
**Result** 8.28

**Query** Request: pIC50, test system UniProt:P31749, entry NC1(c2ccc(-c3nc4n(c3-c3ccsc3)COc3cccc(F)c3-4)cc2)CC(O)(C2CC2)C1 (stereo not drawn) [Example 4]
**Result** 8.15

**Query** Request: pIC50, test system UniProt:P31749, entry C[C@]1(O)C[C@@](N)(c2ccc(-c3nc4n(c3-c3ccccc3)COc3ccc(C#N)cc3-4)cc2)C1 [Example 46]
**Result** 8.36

**Query** Request: pIC50, test system UniProt:P31749, entry CC1(O)CC(N)(c2ccc(-c3nc4n(c3-c3ccccc3)COc3ncccc3-4)cc2)C1 (stereo not drawn) [Example 39]
**Result** 8.85

**Query** Request: pIC50, test system UniProt:P31749, entry COc1ccc2c(c1)-c1nc(-c3ccc([C@]4(N)C[C@@](O)(C5CC5)C4)cc3)c(-c3ccccc3)n1CO2 [Example 17]
**Result** 8.74

**Query** Request: pIC50, test system UniProt:P31749, entry COc1ccc2c(c1)-c1nc(-c3ccc(C4(N)CC(C)(O)C4)cc3)c(-c3ccccc3)n1CO2 (stereo not drawn) [Example 20]
**Result** 8.54

**Query** Request: pIC50, test system UniProt:P31749, entry CC1(O)CC(N)(c2ccc(-c3nc4n(c3-c3ccccc3)COc3ccncc3-4)cc2)C1 (stereo not drawn) [Example 32]
**Result** 8.18

**Query** Request: pIC50, test system UniProt:P31749, entry COc1cccc2c1OCn1c-2nc(-c2ccc([C@]3(N)C[C@@](O)(C4CC4)C3)cc2)c1-c1ccccc1 [Example 19]
**Result** 7.80

**Query** Request: pIC50, test system UniProt:P31749, entry C[C@]1(O)C[C@@](N)(c2ccc(-c3nc4n(c3-c3ccccc3)COc3cnccc3-4)cc2)C1 [Example 36]
**Result** 8.70

**Query** Request: pIC50, test system UniProt:P31749, entry CC1(O)CC(N)(c2ccc(-c3nc4n(c3-c3ccccc3)COc3cc(C(N)=O)ccc3-4)cc2)C1 (stereo not drawn) [Example 62]
**Result** 8.89

**Query** Request: pIC50, test system UniProt:P31749, entry CC1(O)CC(N)(c2ccc(-c3nc4n(c3-c3ccsc3)COc3cccc(F)c3-4)cc2)C1 (stereo not drawn) [Example 6]
**Result** 8.01
